Values compiled from paper PMC9693455.

valueKind: melting point

Record excerpt, results attached:
compound="CCOC(=O)CC(NS(=O)(=O)c1ccc(C)cc1)(c1ccccc1)P(=O)(OC)OC (stereo not shown)" valuekind="melting point" reportedvalue="98 to 99 °C"
compound="CCOC(=O)CC(NS(=O)(=O)c1ccc(C)cc1)(c1ccc(Cl)s1)P(=O)(OC)OC (stereo not shown)" valuekind="melting point" reportedvalue="93 to 94 °C"
compound="CCOC(=O)CC(NS(=O)(=O)c1ccc(C)cc1)(c1ccc(C(F)(F)F)cc1)P(=O)(OC)OC (stereo not shown)" valuekind="melting point" reportedvalue="114 to 115 °C"

Here is another compound to look at.
Give melting point for COP(=O)(OC)C(CC(=O)OCc1ccccc1)(NS(=O)(=O)c1ccc(C)cc1)c1ccccc1 (stereo not shown) [13b]
84 to 85 °C

---

valueKind: melting point

Example entries begin here.
molecule="CCOC(=O)CC(NS(=O)(=O)c1ccc(C)cc1)(c1cccc(Cl)c1)P(=O)(OC)OC (centres unmarked) [7g]" reportedvalue="88 to 89 °C"
molecule="CCOC(=O)CC(NS(=O)(=O)c1ccc(C)cc1)(c1ccc(Cl)c(Cl)c1)P(=O)(OC)OC (centres unmarked) [7h]" reportedvalue="109 to 110 °C"

Specify measured melting point for CCOC(=O)CC(NS(=O)(=O)c1ccc(C)cc1)(c1ccc(OC)c(Cl)c1)P(=O)(OC)OC (centres unmarked) [7i] .
153 to 154 °C

Determine from records and report melting point for CCOC(=O)CC(NS(=O)(=O)c1ccc(C)cc1)(c1ccc([N+](=O)[O-])cc1)P(=O)(OC)OC (centres unmarked) [7q]
129 to 130 °C

Report melting point for CCOC(=O)CC(NS(=O)(=O)c1ccc(C)cc1)(c1ccc(F)cc1F)P(=O)(OC)OC (centres unmarked) [7m]
135 to 136 °C

# return recorded melting point for entry CCOC(=O)CC(NS(=O)(=O)c1ccc(C)cc1)(c1ccc(-c2ccccc2)cc1)P(=O)(OC)OC (centres unmarked) [7s]
112 to 113 °C

Name the recorded melting point of the item CCOC(=O)CC(NS(=O)(=O)c1ccc(C)cc1)(c1ccc(F)cc1)P(=O)(OC)OC (centres unmarked) [7j] in your answer.
111 to 112 °C

Retrieve melting point measured for CCOC(=O)CC(NS(=O)(=O)c1ccc(C)cc1)(c1cccc(C)c1)P(=O)(OC)OC (centres unmarked) [7c] and print it.
103 to 104 °C

Entry CCOC(=O)CC(NS(=O)(=O)c1ccc(C)cc1)(c1ccccc1F)P(=O)(OC)OC (centres unmarked) [7l] needs its melting point filled in; supply it.
140 to 141 °C

Return melting point (reported value) for this molecule: CCOC(=O)CC(NS(=O)(=O)c1ccc(C)cc1)(c1ccc(C)cc1)P(=O)(OC)OC (centres unmarked) [7b]
117 to 118 °C

Consider the molecule CCOC(=O)CC(NS(=O)(=O)c1ccc(C)cc1)(c1ccc(SC(Cl)(Cl)Cl)cc1)P(=O)(OC)OC (centres unmarked) [7d] . State its measured melting point.
123 to 124 °C

Specify reported melting point for the molecule shown: CCOC(=O)CC(NS(=O)(=O)c1ccc(C)cc1)(c1ccc(F)c(F)c1)P(=O)(OC)OC (centres unmarked) [7n]
98 to 99 °C

---

system: SKOV3 (human ovarian carcinoma) cells; experiment: In vitro cytotoxicity (antiproliferative activity), CCK-8 assay, SKOV3; format: cell-based
valueKind: cytotoxicity against SKOV3 cell line (in words)

compound="CCOC(=O)CC(NS(=O)(=O)c1ccc(C)cc1)(c1cccc(C)c1)P(=O)(OC)OC (stereo not shown)" reportedvalue="no activity"
compound="COC(=O)CC(NS(=O)(=O)c1ccc(C)cc1)(c1cccc(F)c1)P(=O)(OC)OC (stereo not shown)" reportedvalue="no toxicity"
compound="COP(=O)(OC)C(CC(=O)OCc1ccccc1)(NS(=O)(=O)c1ccc(C)cc1)c1cccc(F)c1 (stereo not shown) [13a]" reportedvalue="no toxicity"
compound="CCOC(=O)CC(NS(=O)(=O)c1ccc(C)cc1)(c1ccc(C)cc1)P(=O)(OC)OC (stereo not shown)" reportedvalue="no activity"

---

valueKind: melting point

compound="CCOC(=O)CC(NS(=O)(=O)c1ccc(C)cc1)(c1ccc(Cl)cc1)P(=O)(OC)OC (centres unmarked) [7f]" reportedvalue="133 to 134 °C"
compound="CCOC(=O)CC(NS(=O)(=O)c1ccc(C)cc1)(c1cccc(F)c1)P(=O)(OC)OC (centres unmarked) [7k]" reportedvalue="111 to 112 °C"

Provide one value: measured melting point of COP(=O)(OC)C(CC(=O)OCc1ccccc1)(NS(=O)(=O)c1ccc(C)cc1)c1cccc(F)c1 (centres unmarked) [13a]
78 to 79 °C

Give melting point for the following compound: COC(=O)CC(NS(=O)(=O)c1ccc(C)cc1)(c1cccc(F)c1)P(=O)(OC)OC (centres unmarked) [compound 12]
115 to 116 °C

Please report melting point for the following compound: CCOC(=O)CC(NS(=O)(=O)c1ccc(C)cc1)(c1ccc(Br)cc1)P(=O)(OC)OC (centres unmarked) [7e]
138 to 139 °C
